These measurements were taken from patent US8450352B2.

Readings of melting point for the listed molecules

{"molecule": "CCOc1ccc(-c2nc(/C=C/C(=O)c3ccc(Cl)cc3)cs2)cc1OCC [Example 21]", "measValue": "131 to 133 °C"}

q: Value lookup for melting point; key = CCOc1ccc(-c2nc(/C=C/C(=O)c3ccc(Cl)c(Cl)c3)cs2)cc1OCC [Example 29]
a: 138 to 139 °C

---

Readings of melting point for the listed compounds

Use the examples below as a reference point.
{"compound": "CCOc1ccc(-c2nc(/C=C/C(=O)c3ccc(O)c(C(=O)OC)c3)cs2)cc1OCC", "melting point": "161.3 to 162.8 °C"}
{"compound": "CCOc1ccc(-c2nc(/C=C/C(=O)c3ccccc3C(=O)OC)cs2)cc1OCC", "melting point": "132 to 133 °C"}
{"compound": "COc1ccc(-c2nc(/C=C/C(=O)c3ccc(O)c(C(=O)O)c3)cs2)cc1OC", "melting point": "227.4 to 228 °C"}
{"compound": "CCOc1ccc(-c2nc(CCC(=O)c3ccccc3F)cs2)cc1OCC", "melting point": "82.5 to 83.5 °C"}
{"compound": "CCOc1ccc(-c2nc(CCC(=O)c3ccc(Cl)cc3OC)cs2)cc1OCC", "melting point": "102.8 to 104.2 °C"}

As a next step, examine the compound that follows.
q: Value lookup for melting point; key = CCOc1ccc(-c2nc(/C=C/C(=O)c3ccc(C(C)=O)cc3)cs2)cc1OCC
a: 128 to 129 °C
